# assayed target: PI 3-kinase gamma (Homo sapiens, UniProt P48736)
# Sequence (P48736 whole entry): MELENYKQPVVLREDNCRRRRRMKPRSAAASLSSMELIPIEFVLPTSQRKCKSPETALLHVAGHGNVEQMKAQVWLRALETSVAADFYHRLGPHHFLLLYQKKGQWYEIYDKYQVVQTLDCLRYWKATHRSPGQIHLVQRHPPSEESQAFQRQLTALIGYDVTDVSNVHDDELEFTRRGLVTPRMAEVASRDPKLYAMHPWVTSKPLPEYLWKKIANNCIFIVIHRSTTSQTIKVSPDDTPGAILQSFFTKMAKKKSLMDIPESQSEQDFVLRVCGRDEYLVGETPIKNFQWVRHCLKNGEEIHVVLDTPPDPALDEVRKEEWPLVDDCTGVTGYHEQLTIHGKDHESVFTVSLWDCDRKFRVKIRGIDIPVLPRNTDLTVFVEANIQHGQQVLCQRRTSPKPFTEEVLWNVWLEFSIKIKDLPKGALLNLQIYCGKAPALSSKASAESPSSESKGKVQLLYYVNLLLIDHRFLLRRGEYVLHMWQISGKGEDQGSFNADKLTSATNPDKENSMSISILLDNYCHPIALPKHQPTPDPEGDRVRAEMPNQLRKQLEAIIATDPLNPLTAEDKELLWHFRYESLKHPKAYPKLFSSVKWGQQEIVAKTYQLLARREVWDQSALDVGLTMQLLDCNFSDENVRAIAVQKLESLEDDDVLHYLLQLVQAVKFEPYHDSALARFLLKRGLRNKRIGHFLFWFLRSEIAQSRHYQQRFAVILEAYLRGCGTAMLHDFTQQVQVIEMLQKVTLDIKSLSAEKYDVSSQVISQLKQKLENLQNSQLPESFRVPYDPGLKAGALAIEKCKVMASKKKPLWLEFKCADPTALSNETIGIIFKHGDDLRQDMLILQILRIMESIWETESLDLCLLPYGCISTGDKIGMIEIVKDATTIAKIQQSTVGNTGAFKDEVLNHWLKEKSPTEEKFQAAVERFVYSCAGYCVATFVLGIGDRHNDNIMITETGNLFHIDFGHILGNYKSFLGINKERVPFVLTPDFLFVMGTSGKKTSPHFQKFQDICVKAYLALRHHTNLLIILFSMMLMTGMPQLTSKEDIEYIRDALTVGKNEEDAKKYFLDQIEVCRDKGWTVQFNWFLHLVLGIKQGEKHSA
# measurement protocol: Cellular U937 AKT assay K1 (MSD)
# Type: cell-based
# test conditions: U937 cells, K1 format; read-out: Assay K1 PI3Kγ IC50
Here the recorded log10 IC50 is given for each entry.
Log10 applied to IC50; unit prior to transform: nM.

Examples with answers:
compound	assayed target	log10 IC50
Cc1ccc(S(=O)(=O)NCC(C)(F)F)cc1-c1cnc(N)c(-n2cncn2)n1	PI 3-kinase gamma (Homo sapiens, UniProt P48736)	2.44
Cc1ccc(S(=O)(=O)NCC(C)(C)CO)cc1-c1cnc(N)c(-n2cncn2)n1	PI 3-kinase gamma (Homo sapiens, UniProt P48736)	2.25
Cc1ccc(S(=O)(=O)N2CC(F)(F)C2)cc1-c1cnc(N)c(-n2cncn2)n1	PI 3-kinase gamma (Homo sapiens, UniProt P48736)	3.29
Cc1ccc(S(=O)(=O)NCC2(C)COC2)cc1-c1cnc(N)c(-c2cnn(C)c2)n1	PI 3-kinase gamma (Homo sapiens, UniProt P48736)	1.89
Cc1ccc(S(=O)(=O)NCCCF)cc1-c1cnc(N)c(-n2cncn2)n1	PI 3-kinase gamma (Homo sapiens, UniProt P48736)	2.12
Cc1cc(-c2nc(-c3cc(S(=O)(=O)NC[C@H]4CCNC4)ccc3C)cnc2N)ccn1	PI 3-kinase gamma (Homo sapiens, UniProt P48736)	3.79
Cc1ccc(S(=O)(=O)NCCC(C)(C)O)cc1-c1cnc(N)c(-c2cnn(Cc3ccccn3)c2)n1	PI 3-kinase gamma (Homo sapiens, UniProt P48736)	1.97
Cc1cc(F)c(S(=O)(=O)NCCC(C)(C)O)cc1-c1cnc(N)c(-c2cnn(C)c2)n1	PI 3-kinase gamma (Homo sapiens, UniProt P48736)	2.07
Cc1ccc(S(=O)(=O)NCC2(O)CC2)cc1-c1cnc(N)c(-n2cncn2)n1	PI 3-kinase gamma (Homo sapiens, UniProt P48736)	2.45
Cc1ncc(-c2nc(-c3cc(S(=O)(=O)NC[C@H]4CCOC4)ccc3C)cnc2N)s1	PI 3-kinase gamma (Homo sapiens, UniProt P48736)	1.15

Q: Consider the compound "Cc1ccc(S(=O)(=O)N[C@H]2CC[C@@H](O)CC2)cc1-c1cnc(N)c(-c2cnn(C)c2)n1" and give its measured log10 IC50.
Ans: 1.96

Q: Consider the compound Cc1ccc(S(=O)(=O)NC2CC3(CC(O)C3)C2)cc1-c1cnc(N)c(-n2cncn2)n1 (stereo not drawn) and give its measured log10 IC50.
Ans: 1.83

Q: Consider the compound "Cc1cn(-c2nc(-c3cc(S(=O)(=O)N[C@H]4CC[C@H](O)CC4)ccc3C)cnc2N)cn1" and give its measured log10 IC50.
Ans: 2.11

Q: Consider the compound "Cc1ccc(-c2nc(-c3cc(S(=O)(=O)NCCC(C)(C)O)ccc3C)cnc2N)s1" and give its measured log10 IC50.
Ans: 1.62

Q: Consider the compound "Cc1ncn(-c2nc(-c3cc(S(=O)(=O)NCCC(C)(C)O)ccc3C)cnc2N)n1" and give its measured log10 IC50.
Ans: 2.19

Q: Consider the compound "CCc1nnc(-c2nc(-c3cc(S(=O)(=O)N[C@H]4CC[C@H](O)CC4)ccc3C)cnc2N)o1" and give its measured log10 IC50.
Ans: 2.41

Q: Consider the compound "Cc1ccc(S(=O)(=O)NC[C@@H](C)O)cc1-c1cnc(N)c(-n2cncn2)n1" and give its measured log10 IC50.
Ans: 2.32

Q: Consider the compound "Cc1ccc(S(=O)(=O)NCCC(C)(C)O)cc1-c1cnc(N)c(-c2cnn(Cc3cccnc3)c2)n1" and give its measured log10 IC50.
Ans: 1.53

Q: Consider the compound "Cc1ccc(S(=O)(=O)NC[C@H]2CCOC2)cc1-c1cnc(N)c(-n2cncn2)n1" and give its measured log10 IC50.
Ans: 2.38

Q: Consider the compound Cc1ccc(S(=O)(=O)NCCC(O)C(F)(F)F)cc1-c1cnc(N)c(-c2cnn(C)c2)n1 (stereo not drawn) and give its measured log10 IC50.
Ans: 1.83

Q: Consider the compound "Cc1ccc(S(=O)(=O)NCCC(C)(C)O)cc1-c1cnc(N)c(-c2ccncc2)n1" and give its measured log10 IC50.
Ans: 2.11

Where do the numbers come from? From patent US10004732B2.
